target-system: recombinant human mPGES-1 (Homo sapiens)
Construct: made in house; host or cells: Rosetta E. coli (microsomal/membrane fraction)
assay-notes: mPGES-1 inhibition test (microsomes, PGH2 substrate, HTRF detection of PGE2)
Format: biochemical
test-context: inhibition of mPGES-1 at 10 μM
assay-readout: inhibition at 10 µM (%)
// note: answer is a bare numeric in %

Examples with their reported inhibition at 10 µM follow.
Lookup: Consider the molecule COc1cc2c(cc1C(=O)NCc1ncccc1C)nc(Nc1c(Cl)cccc1Cl)n2C [Example 465] and give its measured inhibition at 10 µM.
Found: 100

Lookup: inhibition at 10 µM for O=C(N[C@H]1CC[C@H](C(F)(F)F)CC1)c1cc2nc(Nc3c(Cl)cc(F)cc3Cl)[nH]c2cc1OCC(F)F [Example 587] ?
Found: 97

Lookup: Give its inhibition at 10 µM value. Item: Cn1c(Nc2c(Cl)cccc2Cl)nc2cc(C(=O)NCc3ncccc3F)c(F)cc21 [Example 536]
Found: 89

Lookup: Given the molecule O=C(Nc1cc(Cl)ccn1)c1ccc2c(c1)nc(Nc1c(Cl)cccc1Cl)n2CC1CNC1 [Example 209, (trifluoroacetate)] , what is its reported inhibition at 10 µM?
Found: 100

Lookup: Please report the recorded inhibition at 10 µM for O=C(Nc1ccc(Br)cc1)c1ccc2[nH]c(Nc3c(Cl)cccc3OC(F)(F)F)nc2c1 [Example 557] .
Found: 69

Further cases:
Lookup: Look up inhibition at 10 µM for this molecule: O=C(Nc1ccc(Br)cc1)c1ccc2[nH]c(Nc3ccc(Cl)cc3Cl)nc2c1 [Example 109]
Found: 100

Lookup: Quick one: inhibition at 10 µM of Cn1c(Nc2c(Cl)cccc2Cl)nc2cc(C(=O)NCc3ncccc3Cl)c(F)cc21 [Example 452] ?
Found: 93

Lookup: Give the measured inhibition at 10 µM of Cc1cccc(NC(=O)c2ccc3[nH]c(Nc4c(Cl)cccc4Cl)nc3c2)c1 [Example 4] .
Found: 100

Lookup: What inhibition at 10 µM value was documented for this molecule, O=C(Nc1ccc(C(F)(F)F)cn1)c1ccc2[nH]c(Nc3c(Cl)cccc3Cl)nc2c1 [Example 191] ?
Found: 99

Lookup: Fill in: inhibition at 10 µM of Cn1c(Nc2c(F)cccc2Cl)nc2cc(C(=O)Nc3ccc(Br)cc3)ccc21 [Example 381] is ___
Found: 100

---

Listing of recorded inhibition at 10 µM by entry.
target-system: recombinant human mPGES-1 (Homo sapiens, UniProt O14684)
Construct: made in house; host or cells: Rosetta E. coli (microsomal/membrane fraction)
Sequence (O14684 whole entry): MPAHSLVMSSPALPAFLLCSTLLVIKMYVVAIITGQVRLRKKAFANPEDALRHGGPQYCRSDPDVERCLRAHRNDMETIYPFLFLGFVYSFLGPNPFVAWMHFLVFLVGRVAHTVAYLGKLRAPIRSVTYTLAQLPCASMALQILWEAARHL
assay-notes: mPGES-1 inhibition test (microsomes, PGH2 substrate, HTRF detection of PGE2)
Type: biochemical
test-context: inhibition of mPGES-1 at 10 μM
Experimental: Microsomes from Rosetta E. coli bacteria expressing recombinant human mPGES-1 is dissolved in 0.1 M KPi pH 7.4 buffer containing 2.5 mM GSH. 50 μl of the enzyme is subsequently dispensed in a 384-well plate. […] After over night incubation the fluorescence is measured by the use of an appropriate microplate reader. […] The extent of the specific FRET is measured as a ratio of the emission intensity at 665 nm vs. that at 620 nm. […]
The reply should be a number in %, with the unit left off.

The cases that follow already have their inhibition at 10 µM on record.
Lookup: State the recorded inhibition at 10 µM for this entry: O=C(NCC1CCCO1)c1ccc2[nH]c(Nc3c(Cl)cccc3Cl)nc2c1 (centres unmarked)
Found: 77

Lookup: Item under review: O=C(Nc1ccc(Br)cc1)c1cc2nc(Nc3c(Cl)cccc3Cl)[nH]c2cc1Cl . Reported inhibition at 10 µM?
Found: 100

Lookup: What does the record list as inhibition at 10 µM for Cc1nc(NC(=O)c2ccc3c(c2)nc(Nc2c(Cl)cccc2Cl)n3C)cc2c1CCCC2 ?
Found: 98

Lookup: # input molecule: O=C(Nc1ccccc1)c1ccc2[nH]c(Nc3c(Cl)cccc3Cl)nc2c1 ; wanted: its inhibition at 10 µM
Found: 100

Others:
Lookup: Would you mind telling me what inhibition at 10 µM value was observed for Cn1c(Nc2c(Cl)cccc2Cl)nc2cc(C(=O)NC3CCCCCC3)ccc21 ?
Found: 100
